- Test system: BT-549 breast
- experiment-notes: NCI tumour cell line growth inhibition, 48 h
Kindly supply the reported GI50 values for the records listed here.

Exercise: What value of measured GI50 is listed for COCc1c(-c2cc3cc(C)cc(OC)c3s2)c2c(N)ncnn2c1CN1CCNC(=O)C1 ?
Solution: 1.03 µM

Exercise: What value of measured GI50 is listed for CC1=C(SCCC(=O)OC(C[Se]C2=C(C)C(=O)c3ccccc3C2=O)C(=O)NCCCCCC(=O)OCc2ccccc2)C(=O)c2ccccc2C1=O (centres undefined) ?
Solution: 3.81 µM

Exercise: What value of measured GI50 is listed for CC1(C)CNc2cc(NC(=O)c3cccnc3NCc3ccncc3)ccc21 ?
Solution: 25.2 µM

Exercise: What value of measured GI50 is listed for CCC(C)[C@H](NC(=O)Nc1cc(C(F)(F)F)cc(C(F)(F)F)c1)C(=O)N[C@@H](Cc1cn(C)cn1)C(=O)OC (some centres undefined) ?
Solution: 0.698 µM

Exercise: What value of measured GI50 is listed for CC(C)(C)c1ccc(Oc2ccc(N)cn2)cc1 ?
Solution: 11.3 µM

Exercise: What value of measured GI50 is listed for COc1cc(/C=C/C(=O)/C=C/c2ccc(-n3ccnc3C)cc2)ccc1O ?
Solution: 1.97 µM

Exercise: What value of measured GI50 is listed for CCN(Cc1ccccc1)C1CCN(Cc2cc(Br)ccc2O)CC1 ?
Solution: 44.4 µM

Exercise: What value of measured GI50 is listed for COc1ccc(C/C(=C(\C)c2ccc(OCCN3CCCC3)cc2)c2ccc(OCCN3CCCC3)cc2)cc1 ?
Solution: 1.67 µM

Exercise: What value of measured GI50 is listed for O=C(Nc1cccc(O)c1)c1ccc(NC2=C(Cl)C(=O)N(Cc3ccc(Cl)cc3Cl)C2=O)cc1 ?
Solution: 5.7 µM

====

Kindly supply the reported TGI values for the records listed here.
- System: A549 NSCLC
- experiment-notes: NCI tumour cell line growth inhibition, 48 h

Exercise: What value of measured TGI is listed for Nc1nc(Cl)cc(NC2(CO)CCC2)n1 ?
Solution: > 100 µM

Exercise: What value of measured TGI is listed for Nc1nc([Se])c2ncn(C3OC(CO)C(O)C3O)c2n1 (stereo unspecified) ?
Solution: > 100 µM

Exercise: What value of measured TGI is listed for CC(C)=CCc1[nH]c2ccccc2c1C1=C(O)C(=O)C(c2c(CC=C(C)C)[nH]c3ccccc23)=C(O)C1=O ?
Solution: 11.2 µM

Exercise: What value of measured TGI is listed for O=C(CC1OC(O)C(Cl)=C1Cl)c1cccnc1 (stereo unspecified) ?
Solution: > 100 µM

Exercise: What value of measured TGI is listed for CN(c1ccc(C(=O)c2ccc(N(C)S(C)(=O)=O)cc2)cc1)S(C)(=O)=O ?
Solution: > 100 µM

Exercise: What value of measured TGI is listed for Cc1ccccc1NC(=O)c1sc2nc(C)c(C(=O)/C=C/c3ccccc3)cc2c1N ?
Solution: 9.7 µM

Exercise: What value of measured TGI is listed for CC(C)(C)OC(=O)CN1CCNCCN(CC(=O)OC(C)(C)C)CCNCC1 ?
Solution: > 100 µM

Exercise: What value of measured TGI is listed for COc1ccc2c(c1)nc(C(=O)c1ccco1)c(C(F)(F)F)[n+]2[O-] ?
Solution: > 100 µM

Exercise: What value of measured TGI is listed for O=C(NC(=O)c1cc(-c2ccccc2)n[nH]1)c1ccccc1 ?
Solution: > 100 µM

Exercise: What value of measured TGI is listed for Cc1ccc(S(=O)(=O)SC(C)(C)C)cc1 ?
Solution: > 100 µM

Exercise: What value of measured TGI is listed for CC1=C(/C=C/C(C)=C/C2CC(N(C)C)=CC(=O)O2)C(C)(C)CCC1 (stereo unspecified) ?
Solution: 22.3 µM

Exercise: What value of measured TGI is listed for COC(=O)C1Cc2c(n(C)c3ccccc23)C(CCC(=O)O)N1Cc1ccccc1 (stereo unspecified) ?
Solution: > 100 µM

Exercise: What value of measured TGI is listed for NCC(O)CNC(=O)c1ccc(-c2ccc(-c3ccc(C(=O)NCC(O)CN)cc3)o2)cc1 (stereo unspecified) ?
Solution: > 100 µM

Exercise: What value of measured TGI is listed for COc1ccc2c3c([nH]c2c1[N+](=O)[O-])C(C)N(Cc1ccccc1)CC3 (stereo unspecified) ?
Solution: > 100 µM

Exercise: What value of measured TGI is listed for COc1ccc(N=NC(=O)NC(CC(C)C)C(N)=O)cc1 (stereo unspecified) ?
Solution: > 31.6 µM

Exercise: What value of measured TGI is listed for O=C(O)c1cnc(-n2[nH]c3c(c2=O)CCCC3)[nH]c1=O ?
Solution: > 100 µM

Exercise: What value of measured TGI is listed for CC(C)(C)c1ccc(Oc2ccc(N)cn2)cc1 ?
Solution: > 100 µM

Exercise: What value of measured TGI is listed for C=C1C(O)C[C@H](OC(C)=O)[C@]2(C)C1C(OC(C)=O)[C@]1(C(C)(C)O)CC(O)C(C)=C1[C@@H](OC(=O)c1ccccc1)C2OC(C)=O (stereo partly specified) ?
Solution: > 10 µM

Exercise: What value of measured TGI is listed for Cc1ccc(C2=C(C#N)C(N)OC3=C2COc2ccccc23)cc1 (stereo unspecified) ?
Solution: > 100 µM

Exercise: What value of measured TGI is listed for CC(=O)Oc1c2c(c3n(c1=O)CCCC3)C(=O)N(c1ccccc1)C2=O ?
Solution: > 100 µM

Exercise: What value of measured TGI is listed for COc1ccc(C2C(C#N)=C(S)N(C3OC(COC(C)=O)C(OC(C)=O)C(OC(C)=O)C3OC(C)=O)C(c3ccccc3)=C2C(C)=O)cc1 (stereo unspecified) ?
Solution: > 100 µM

====

- System: NCI-H226 lung
- experiment-notes: NCI tumour cell line growth inhibition, 48 h; in the data active = GI50 below about 0.43 µM; inactive = the rest
# valid calls are active, inactive; nothing else

Exercise: Just curious, what result did COC(=O)[C@H](Cc1cnc[nH]1)NC(=O)[C@@H](NC(=O)Nc1cc(C(F)(F)F)cc(C(F)(F)F)c1)C(C)C get here?
Solution: inactive

Exercise: Just curious, what result did COc1ccc2c(c1)nc(C(=O)c1ccco1)c(C(F)(F)F)[n+]2[O-] get here?
Solution: inactive

Exercise: Just curious, what result did O=C(Nc1cccc(O)c1)c1ccc(NC2=C(Cl)C(=O)N(Cc3ccc(Cl)cc3Cl)C2=O)cc1 get here?
Solution: inactive

Exercise: Just curious, what result did O=C1CC(c2cccc(F)c2)Nc2cc3c(cc21)OCO3 (stereo not given) get here?
Solution: active

Exercise: Just curious, what result did COc1cc(Nc2ncc(-c3ccccc3)o2)cc(OC)c1 get here?
Solution: inactive

Exercise: Just curious, what result did COc1ccc2c(c1)[nH]c(=O)c1c3cccc(F)c3cn21 get here?
Solution: inactive

Exercise: Just curious, what result did COc1cc(/C=C/C(=O)/C=C/c2ccc(-n3ccnc3C)cc2)ccc1O get here?
Solution: inactive

Exercise: Just curious, what result did CCN(Cc1ccccc1)C1CCN(Cc2cc(Br)ccc2O)CC1 get here?
Solution: inactive

Exercise: Just curious, what result did Cc1cc2c(cc1Cl)S/C(=C/C(=O)O)C(Nc1ccc3ncsc3c1)=NS2(=O)=O get here?
Solution: inactive

Exercise: Just curious, what result did Nc1ccc(C2=CC(c3ccc(Cl)cc3)N3C=CSC3=N2)cc1 (stereo not given) get here?
Solution: inactive

====

- Tested on: MDA-MB-435
- experiment-notes: NCI tumour cell line growth inhibition, 48 h
Kindly supply the reported GI50 values for the records listed here.

Exercise: What value of measured GI50 is listed for CC(N)(Cc1c[nH]c2cccc(F)c12)C(=O)O (centres undefined) ?
Solution: > 1000 µM

Exercise: What value of measured GI50 is listed for CC1(C)CNc2cc(NC(=O)c3cccnc3NCc3ccncc3)ccc21 ?
Solution: 26.1 µM

Exercise: What value of measured GI50 is listed for C[C@]12CC[C@H]3[C@@H](CC=C4C[C@@H](N5CCCC5)CC[C@@]43C)[C@@H]1C/C(=C\c1cccc(OCCN3CCOCC3)c1)[C@@H]2O ?
Solution: 3.64 µM

Exercise: What value of measured GI50 is listed for CC1=C2[C@@H](CC1)[C@]1(C)O[C@@](C(C)C)(C[C@H]1OC(=O)CO)[C@H]2OC(=O)C1CC1c1ccccc1 (some centres undefined) ?
Solution: 14.1 µM

====

- System: SN12C renal
- experiment-notes: NCI tumour cell line growth inhibition, 48 h
Kindly supply the reported TGI values for the records listed here.

Exercise: What value of measured TGI is listed for COc1c(-c2nc3nc(N4CCN(C)CC4)ccc3[nH]2)cc(OC)c2c1nc(COC(C)=O)n2C ?
Solution: > 100 µM

Exercise: What value of measured TGI is listed for CCc1ccc(CCC(=O)Nc2ncc(Cc3ccc(Cl)cc3)s2)o1 ?
Solution: > 100 µM

Exercise: What value of measured TGI is listed for O=C(N/N=C\c1ccc(N(CCCl)CCCl)cc1[N+](=O)[O-])c1cccnc1 ?
Solution: > 100 µM

Exercise: What value of measured TGI is listed for COc1ccc([C@@H]2CC(=O)N2)cc1 ?
Solution: > 100 µM

Exercise: What value of measured TGI is listed for CCCCCCCCCCCCCCC(O)C[N+](C)(CCO)CCO (stereo unspecified) ?
Solution: 21.5 µM

Exercise: What value of measured TGI is listed for Cc1sc2c(c1C)/C(=N\O)c1cccn1-2 ?
Solution: > 100 µM
